# Tested on: HepG2-A16-CD81EGFP cells
# measurement.setup: human, 50 uM
property.label: HepG2 Tox% @ 50 uM rep1 (%)
Write the value in % as a bare number.

{"columns": ["molecule", "value"],
 "data": [
  ["COc1ccc(N2CCN(C(CNC(=O)CC(C)(C)C)c3ccc4c(c3)OCO4)CC2)cc1 (centres unmarked)", -10],
  ["CCN(CC)c1cc(C)c2cc(NC(=O)c3cccc(OC)c3)ccc2n1", 100],
  ["CCOc1cc2c(cc1OCC)C(c1cc(Cl)ccc1O)NCC2 (centres unmarked)", 101]
]}

Query string: Param readout = HepG2 Tox% @ 50 uM rep1; param system = HepG2-A16-CD81EGFP cells; param query = CCOc1cc2c(cc1OCC)C(c1cc(Cl)c(O)c(OCC)c1)NCC2 (centres unmarked) ; response: value
Result string: 20

Query string: Param readout = HepG2 Tox% @ 50 uM rep1; param system = HepG2-A16-CD81EGFP cells; param query = COc1cccc(Nc2nc(NCCO)c3ccccc3n2)c1 ; response: value
Result string: 100

Query string: Param readout = HepG2 Tox% @ 50 uM rep1; param system = HepG2-A16-CD81EGFP cells; param query = CCOC(=O)c1cnc2ccc(OC)cc2c1NCc1ccccc1 ; response: value
Result string: 102

Query string: Param readout = HepG2 Tox% @ 50 uM rep1; param system = HepG2-A16-CD81EGFP cells; param query = CCOC(=O)C1=C(C)N=c2sc(=Cc3ccccc3O)c(=O)n2C1c1ccc(OC)c2ccccc12 (centres unmarked) ; response: value
Result string: -8

----------
# measured.on: QuantiLum Recombinant Luciferase (Photinus pyralis, UniProt P08659)
# Sequence (P08659 whole entry): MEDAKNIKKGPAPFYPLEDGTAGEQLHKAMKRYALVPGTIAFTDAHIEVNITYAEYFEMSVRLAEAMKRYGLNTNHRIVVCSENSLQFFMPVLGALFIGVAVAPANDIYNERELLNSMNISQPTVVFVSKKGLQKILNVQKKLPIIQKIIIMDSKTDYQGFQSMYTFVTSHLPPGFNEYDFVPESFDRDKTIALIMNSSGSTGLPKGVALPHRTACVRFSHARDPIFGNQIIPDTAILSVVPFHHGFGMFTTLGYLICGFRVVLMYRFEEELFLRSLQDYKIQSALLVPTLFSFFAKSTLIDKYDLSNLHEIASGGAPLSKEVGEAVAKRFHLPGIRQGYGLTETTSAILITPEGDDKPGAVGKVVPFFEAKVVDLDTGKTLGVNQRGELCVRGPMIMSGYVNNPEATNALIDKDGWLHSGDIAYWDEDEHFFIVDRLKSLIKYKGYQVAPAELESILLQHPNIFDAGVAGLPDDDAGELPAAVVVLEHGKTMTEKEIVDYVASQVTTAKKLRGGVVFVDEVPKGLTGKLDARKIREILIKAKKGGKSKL
# test.details: Bioluminescence quantification of compound luciferase inhibition
property.label: IC50

// below: answered molecules
{"columns": ["structure.notation", "IC50"],
 "data": [
  ["Cc1cc(NC(=O)c2ccc(-c3ccccc3)cc2)no1", "> 20 µM"],
  ["COc1cccc(C=Cc2nc(=O)c3ccccc3o2)c1OC", "5.33 µM"],
  ["CCCCOc1ccc(C(=O)Nc2cc(C)on2)cc1", "> 20 µM"],
  ["COCCn1c(C)nc2ccccc2c1=O", "> 20 µM"]
]}

// next item, IC50 requested
Query string: Look at this molecule and give its reported IC50. O=C(Nc1ccc(N2CCN(Cc3ccccc3)CC2)cc1)c1cccs1
Result string: > 20 µM

----------
Property: inhibition at 50 µM; scope: individual compounds
# Tested on: Plasmodium berghei (Pb-Luc) exoerythrocytic-stage parasites
# test.details: microbe, parasite or virus in culture
# measurement.setup: read-out: Inhibition% @ 50 uM rep2
Write the value in % as a bare number.

Query string: Look at this compound and give its reported inhibition at 50 µM. CC(=O)NCCc1nc2ccccc2n1Cc1ccc(C(C)C)cc1 [MMV007617]
Result string: 106

----------
# System: Plasmodium berghei (Pb-Luc) exoerythrocytic-stage parasites
# measurement.setup: second series; concentration 0.0137174; fraction of control
Please note: normalized signal at concentration 0.0137174 exactly at 0.9 is 0 (no). Only values below 0.9 get 1 (yes).

Query string: Does the reported normalized signal at concentration 0.0137174 of COCC(=O)N1C[C@H](C)[C@@H](OC)CN(C)C(=O)c2ccc(NC(=O)Nc3cccc(F)c3)cc2OC[C@@H]1C stay below 0.9?
Result string: 0 (no)

Query string: Does the reported normalized signal at concentration 0.0137174 of C[C@@H]1CCCCO[C@@H](CN(C)S(=O)(=O)c2ccc(F)cc2)[C@@H](C)CN([C@@H](C)CO)C(=O)c2cc(N(C)C)ccc2O1 stay below 0.9?
Result string: 1 (yes)

Query string: Does the reported normalized signal at concentration 0.0137174 of C[C@@H]1CN([C@@H](C)CO)C(=O)c2cccc(NC(=O)C3CC3)c2O[C@@H]1CN(C)C(=O)Nc1ccc(C(F)(F)F)cc1 stay below 0.9?
Result string: 0 (no)

Cited source: paper PMC4890880
